Target: GABA-A receptor; alpha-1/beta-2/gamma-2 (Rattus norvegicus, UniProt P18508+P62813+P63138)
Sequence (P18508 whole entry): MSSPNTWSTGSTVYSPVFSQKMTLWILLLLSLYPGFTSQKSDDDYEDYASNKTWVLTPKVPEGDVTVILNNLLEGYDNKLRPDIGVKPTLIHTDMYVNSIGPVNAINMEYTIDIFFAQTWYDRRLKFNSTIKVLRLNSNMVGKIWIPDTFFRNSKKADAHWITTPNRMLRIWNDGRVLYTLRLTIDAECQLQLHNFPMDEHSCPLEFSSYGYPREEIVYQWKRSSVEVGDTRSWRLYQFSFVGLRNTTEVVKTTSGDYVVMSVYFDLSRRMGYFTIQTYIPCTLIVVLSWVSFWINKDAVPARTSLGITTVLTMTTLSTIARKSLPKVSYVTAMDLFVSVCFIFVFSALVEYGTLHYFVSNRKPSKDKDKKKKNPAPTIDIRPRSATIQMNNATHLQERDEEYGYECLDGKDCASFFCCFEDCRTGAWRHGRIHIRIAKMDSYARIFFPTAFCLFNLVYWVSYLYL
Sequence (P62813 whole entry): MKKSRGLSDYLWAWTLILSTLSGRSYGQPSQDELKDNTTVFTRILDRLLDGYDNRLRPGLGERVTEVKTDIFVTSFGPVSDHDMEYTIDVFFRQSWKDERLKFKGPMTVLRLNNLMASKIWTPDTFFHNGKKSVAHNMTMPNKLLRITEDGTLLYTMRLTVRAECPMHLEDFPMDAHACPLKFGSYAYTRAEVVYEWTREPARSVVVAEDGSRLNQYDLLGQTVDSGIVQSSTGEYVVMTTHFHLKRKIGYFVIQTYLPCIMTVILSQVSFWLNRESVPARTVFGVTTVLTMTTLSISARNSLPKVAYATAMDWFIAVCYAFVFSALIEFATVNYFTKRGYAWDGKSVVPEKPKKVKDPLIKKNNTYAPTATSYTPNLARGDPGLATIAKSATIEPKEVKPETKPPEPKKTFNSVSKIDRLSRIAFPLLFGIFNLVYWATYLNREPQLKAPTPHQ
Sequence (P63138 whole entry): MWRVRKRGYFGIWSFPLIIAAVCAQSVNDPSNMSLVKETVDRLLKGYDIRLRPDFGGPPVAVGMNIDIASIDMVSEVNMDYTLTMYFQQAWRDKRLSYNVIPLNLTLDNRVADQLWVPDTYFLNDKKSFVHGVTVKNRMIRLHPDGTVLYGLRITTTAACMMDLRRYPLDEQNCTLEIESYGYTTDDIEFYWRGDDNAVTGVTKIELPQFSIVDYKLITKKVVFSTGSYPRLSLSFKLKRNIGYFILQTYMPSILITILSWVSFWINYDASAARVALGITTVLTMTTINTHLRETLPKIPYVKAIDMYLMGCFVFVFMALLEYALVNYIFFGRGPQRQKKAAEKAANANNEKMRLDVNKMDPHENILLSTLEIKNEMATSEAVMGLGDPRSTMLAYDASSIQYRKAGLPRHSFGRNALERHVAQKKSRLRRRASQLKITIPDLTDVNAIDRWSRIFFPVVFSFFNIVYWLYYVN
Assay: Inhibition of [3H]flumazenil binding to rat alpha-1-beta-2-gamma-2 GABA-A receptor subunits expressed in HEK293 cells
metric: pKi
pKi is a log-scale quantity: -log10 of the concentration expressed in molar.

The following compounds have reported results that may help.
>  <smiles.representation>
C[C@@H](NC(=O)C(=O)c1c[nH]c2ccccc12)c1ccccc1

>  <pKi>
5.94

$$$$
>  <smiles.representation>
O=C(NCc1ccc([N+](=O)[O-])cc1)C(=O)c1c[nH]c2ccccc12

>  <pKi>
7.80

$$$$
>  <smiles.representation>
COc1ccc(CNC(=O)C(=O)c2c[nH]c3ccc([N+](=O)[O-])cc23)cc1

>  <pKi>
7.38

$$$$
>  <smiles.representation>
O=C(NNc1ccc([N+](=O)[O-])cc1)C(=O)c1c[nH]c2ccccc12

>  <pKi>
7.60

$$$$
>  <smiles.representation>
O=C(C(=O)N1Cc2ccccc2C1)c1c[nH]c2ccccc12

>  <pKi>
6.65

$$$$

API: value(readout= pKi, system= GABA-A receptor; alpha-1/beta-2/gamma-2 (Rattus norvegicus, UniProt P18508+P62813+P63138), query= O=C(N[C@@H]1CCc2ccccc21)C(=O)c1c[nH]c2ccc([N+](=O)[O-])cc12 )
8.05

API: value(readout= pKi, system= GABA-A receptor; alpha-1/beta-2/gamma-2 (Rattus norvegicus, UniProt P18508+P62813+P63138), query= O=C(N[C@@H]1CCc2ccccc21)C(=O)c1c[nH]c2ccccc12 )
6.65

API: value(readout= pKi, system= GABA-A receptor; alpha-1/beta-2/gamma-2 (Rattus norvegicus, UniProt P18508+P62813+P63138), query= C[C@@H](NC(=O)C(=O)c1c[nH]c2ccc([N+](=O)[O-])cc12)c1ccccc1 )
7.85
